meta.source: ChEMBL document CHEMBL1123677

Tested on: rhinovirus A50
Assay: Tested for antirhinoviral activity against the rhinovirus serotype 50
Type: functional
Details: Rhinovirus A
VALUE_TYPE: log10 MIC (log10 of the value in µM)
log10 MIC, µM

For orientation, consider the following solved cases.
Query block: Annotate the molecule CC(=O)c1cc(C2=NCCO2)ccc1OCCCCCc1cc(C)no1 with its measured log10 MIC.
Result block: -0.70

Query block: Annotate the molecule Cc1cc(CCCCCOc2ccc(C3=NCCO3)cc2C(F)(F)F)on1 with its measured log10 MIC.
Result block: 0.04

Query block: Annotate the molecule Cc1cc(CCCCCOc2ccc(C3=NCCO3)cc2)on1 with its measured log10 MIC.
Result block: 0.18

List reported log10 MIC for each of these molecules:
1. Cc1cc(CCCCCOc2ccc(C3=NCCO3)cc2C)on1
2. Cc1cc(CCCCCOc2ccc(C3=NCCO3)cc2Br)on1
3. Cc1cc(CCCCCOc2ccc(C3=NCCO3)cc2Cl)on1
4. C=CCc1cc(C2=NCCO2)ccc1OCCCCCc1cc(C)no1

Result block:
[-0.52, -1.00, -0.70, -0.40]

List reported log10 MIC for each of these molecules:
1. Cc1cc(CCCCCOc2ccc(C3=NCCO3)cc2C(F)F)on1
2. CCc1cc(C2=NCCO2)ccc1OCCCCCc1cc(C)no1

Result block:
1: 0.30; 2: -1.00

List reported log10 MIC for each of these molecules:
1. COc1cc(C2=NCCO2)ccc1OCCCCCc1cc(C)no1
2. C=Cc1cc(C2=NCCO2)ccc1OCCCCCc1cc(C)no1

Result block:
1: -0.40; 2: 0.08

----------
Assay: Partition coefficient (logP)
Type: physicochemical
Settings: octanol/water
# strict inequality: logP < 4 yields 1 (yes), everything else yields 0 (no)

Query block: Does CC(=O)c1cc(C2=NCCO2)ccc1OCCCCCc1cc(C)no1 have logP strictly under 4?
Result block: 1 (yes)

Query block: Does Cc1cc(CCCCCOc2ccc(C3=NCCO3)cc2N)on1 have logP strictly under 4?
Result block: 1 (yes)

Query block: Does C=CCc1cc(C2=NCCO2)ccc1OCCCCCc1cc(C)no1 have logP strictly under 4?
Result block: 0 (no)

Query block: Does C=Cc1cc(C2=NCCO2)ccc1OCCCCCc1cc(C)no1 have logP strictly under 4?
Result block: 0 (no)

Next up:
Query block: Does Cc1cc(CCCCCOc2ccc(C3=NCCO3)cc2Br)on1 have logP strictly under 4?
Result block: 0 (no)

----------
Hi there, I'd appreciate the recorded MIC for every entry that follows.
Tested on: rhinovirus A67
Experiment: Tested for antirhinoviral activity against the rhinovirus serotype 67
Format: functional
Settings: Rhinovirus A
Answers are plain numbers, in µM.

Query block: Annotate the compound Cc1cc(CCCCCOc2ccc(C3=NCCO3)cc2)on1 with its measured MIC.
Result block: 2.4

Query block: Annotate the compound Cc1cc(CCCCCOc2ccc(C3=NCCO3)cc2C(F)F)on1 with its measured MIC.
Result block: 0.2

Query block: Annotate the compound Cc1cc(CCCCCOc2ccc(C3=NCCO3)cc2C)on1 with its measured MIC.
Result block: 0.2

Query block: Annotate the compound CCc1cc(C2=NCCO2)ccc1OCCCCCc1cc(C)no1 with its measured MIC.
Result block: 0.3

Query block: Annotate the compound Cc1cc(CCCCCOc2ccc(C3=NCCO3)cc2C(F)(F)F)on1 with its measured MIC.
Result block: 0.2

List reported MIC for each of these compounds:
1. Cc1cc(CCCCCOc2ccc(C3=NCCO3)cc2Cl)on1
2. COc1cc(C2=NCCO2)ccc1OCCCCCc1cc(C)no1

Result block:
1. 0.23
2. 1

List reported MIC for each of these compounds:
1. C=Cc1cc(C2=NCCO2)ccc1OCCCCCc1cc(C)no1
2. CC(=O)c1cc(C2=NCCO2)ccc1OCCCCCc1cc(C)no1

Result block:
1. 0.4
2. 0.6

List reported MIC for each of these compounds:
1. Cc1cc(CCCCCOc2ccc(C3=NCCO3)cc2Br)on1
2. C=CCc1cc(C2=NCCO2)ccc1OCCCCCc1cc(C)no1

Result block:
1: 0.2; 2: 1.1

----------
Tested on: rhinovirus A21
Experiment: Tested for antirhinoviral activity against the rhinovirus serotype 21
Type: functional
Settings: Rhinovirus A
# strict inequality: MIC < 0.05 µM yields Yes, everything else yields No

Query block: Does CC(=O)c1cc(C2=NCCO2)ccc1OCCCCCc1cc(C)no1 have MIC strictly under 0.05 µM?
Result block: No

Query block: Does Cc1cc(CCCCCOc2ccc(C3=NCCO3)cc2Br)on1 have MIC strictly under 0.05 µM?
Result block: Yes

Query block: Does C=Cc1cc(C2=NCCO2)ccc1OCCCCCc1cc(C)no1 have MIC strictly under 0.05 µM?
Result block: No

More entries:
Query block: Does Cc1cc(CCCCCOc2ccc(C3=NCCO3)cc2Cl)on1 have MIC strictly under 0.05 µM?
Result block: No

Query block: Does Cc1cc(CCCCCOc2ccc(C3=NCCO3)cc2C)on1 have MIC strictly under 0.05 µM?
Result block: No

Query block: Does Cc1cc(CCCCCOc2ccc(C3=NCCO3)cc2C(F)(F)F)on1 have MIC strictly under 0.05 µM?
Result block: Yes

Query block: Does C=CCc1cc(C2=NCCO2)ccc1OCCCCCc1cc(C)no1 have MIC strictly under 0.05 µM?
Result block: No

----------
Hi there, I'd appreciate the recorded MIC for every entry that follows.
Test system: rhinovirus A2
Experiment: Antiviral activity determined by ability to inhibit the HRV-2( human rhinovirus type -2) virus by plaque reduction assay in vitro
Format: functional
Conditions: Rhinovirus A
Give bare numbers, in µM.

For orientation, consider the following solved cases.
Query block: Annotate the compound Cc1cc(CCCCCOc2ccc(C3=NCCO3)cc2F)on1 with its measured MIC.
Result block: 0.4

Query block: Annotate the compound Cc1cc(CCCCCOc2ccc(C3=NCCO3)cc2C(F)F)on1 with its measured MIC.
Result block: 0.06

Query block: Annotate the compound CC(=O)c1cc(C2=NCCO2)ccc1OCCCCCc1cc(C)no1 with its measured MIC.
Result block: 0.1

List reported MIC for each of these compounds:
1. Cc1cc(CCCCCCCOc2ccc(C3=NCCO3)cc2)on1
2. COc1cc(C2=NCCO2)ccc1OCCCCCc1cc(C)no1
3. Cc1cc(CCCCCOc2ccc(C3=NCCO3)c(C)c2)on1
4. Cc1cc(CCCCCOc2ccc(C3=NCCO3)cc2C(C)C)on1
5. Cc1cc(CCCCCCCOc2ccc(C3=NCCO3)cc2Cl)on1
6. Cc1cc(CCCCCOc2ccc(C3=NCCO3)cc2N)on1

Result block:
[3.5, 0.3, 0.41, 0.2, 0.1, 0.91]

List reported MIC for each of these compounds:
1. Cc1cc(CCCCCOc2ccc(C3=NCCO3)cc2C(F)(F)F)on1
2. Cc1cc(CCCCOc2ccc(C3=NCCO3)cc2Cl)on1
3. Cc1cc(CCCCCOc2ccc(C3=NCCO3)cc2[N+](=O)[O-])on1
4. Cc1cc(CCCCCOc2ccc(C3=NCCO3)cc2CO)on1
5. Cc1cc(CCCCCCOc2ccc(C3=NCCO3)cc2Cl)on1
6. Cc1cc(CCCCCOc2ccc(C3=NCCO3)cc2C=O)on1
7. C=CCc1cc(C2=NCCO2)ccc1OCCCCCc1cc(C)no1
8. C=Cc1cc(C2=NCCO2)ccc1OCCCCCc1cc(C)no1

Result block:
0.03
0.2
0.04
7.1
0.06
1.4
0.08
0.2

----------
Hi there, I'd appreciate the recorded MIC for every entry that follows.
Tested on: Human rhinovirus 1A
Assay: Tested for antirhinoviral activity against the rhinovirus serotype 1A
Assay type: functional
Give bare numbers, in µM.

For orientation, consider the following solved cases.
Query block: Annotate the compound C=Cc1cc(C2=NCCO2)ccc1OCCCCCc1cc(C)no1 with its measured MIC.
Result block: 1.2

Query block: Annotate the compound Cc1cc(CCCCCOc2ccc(C3=NCCO3)cc2C(F)F)on1 with its measured MIC.
Result block: 0.8

Query block: Annotate the compound Cc1cc(CCCCCOc2ccc(C3=NCCO3)cc2Cl)on1 with its measured MIC.
Result block: 1

List reported MIC for each of these compounds:
1. COc1cc(C2=NCCO2)ccc1OCCCCCc1cc(C)no1
2. Cc1cc(CCCCCOc2ccc(C3=NCCO3)cc2C)on1
3. C=CCc1cc(C2=NCCO2)ccc1OCCCCCc1cc(C)no1
4. CC(=O)c1cc(C2=NCCO2)ccc1OCCCCCc1cc(C)no1
5. Cc1cc(CCCCCOc2ccc(C3=NCCO3)cc2Br)on1

Result block:
1: 6.7; 2: 2; 3: 1.4; 4: 2.2; 5: 0.5

List reported MIC for each of these compounds:
1. Cc1cc(CCCCCOc2ccc(C3=NCCO3)cc2C(F)(F)F)on1
2. CCc1cc(C2=NCCO2)ccc1OCCCCCc1cc(C)no1
3. Cc1cc(CCCCCOc2ccc(C3=NCCO3)cc2)on1

Result block:
1. 0.4
2. 2
3. 7
